Provide the recorded IC50 for the entries that follow.
target: EGFR (T790M/L858R), H1975 cell (Homo sapiens, UniProt P00533, L858R/T790M); construct: endogenous in cells; host or cells: H1975; experiment: ELISA assay of EGFR phosphorylation in H1975 cells; type: cell-based; conditions: EGFR pY1068 sandwich ELISA, 2 hours compound in serum-free medium
Sequence (P00533 25-1210 T790M/L858R): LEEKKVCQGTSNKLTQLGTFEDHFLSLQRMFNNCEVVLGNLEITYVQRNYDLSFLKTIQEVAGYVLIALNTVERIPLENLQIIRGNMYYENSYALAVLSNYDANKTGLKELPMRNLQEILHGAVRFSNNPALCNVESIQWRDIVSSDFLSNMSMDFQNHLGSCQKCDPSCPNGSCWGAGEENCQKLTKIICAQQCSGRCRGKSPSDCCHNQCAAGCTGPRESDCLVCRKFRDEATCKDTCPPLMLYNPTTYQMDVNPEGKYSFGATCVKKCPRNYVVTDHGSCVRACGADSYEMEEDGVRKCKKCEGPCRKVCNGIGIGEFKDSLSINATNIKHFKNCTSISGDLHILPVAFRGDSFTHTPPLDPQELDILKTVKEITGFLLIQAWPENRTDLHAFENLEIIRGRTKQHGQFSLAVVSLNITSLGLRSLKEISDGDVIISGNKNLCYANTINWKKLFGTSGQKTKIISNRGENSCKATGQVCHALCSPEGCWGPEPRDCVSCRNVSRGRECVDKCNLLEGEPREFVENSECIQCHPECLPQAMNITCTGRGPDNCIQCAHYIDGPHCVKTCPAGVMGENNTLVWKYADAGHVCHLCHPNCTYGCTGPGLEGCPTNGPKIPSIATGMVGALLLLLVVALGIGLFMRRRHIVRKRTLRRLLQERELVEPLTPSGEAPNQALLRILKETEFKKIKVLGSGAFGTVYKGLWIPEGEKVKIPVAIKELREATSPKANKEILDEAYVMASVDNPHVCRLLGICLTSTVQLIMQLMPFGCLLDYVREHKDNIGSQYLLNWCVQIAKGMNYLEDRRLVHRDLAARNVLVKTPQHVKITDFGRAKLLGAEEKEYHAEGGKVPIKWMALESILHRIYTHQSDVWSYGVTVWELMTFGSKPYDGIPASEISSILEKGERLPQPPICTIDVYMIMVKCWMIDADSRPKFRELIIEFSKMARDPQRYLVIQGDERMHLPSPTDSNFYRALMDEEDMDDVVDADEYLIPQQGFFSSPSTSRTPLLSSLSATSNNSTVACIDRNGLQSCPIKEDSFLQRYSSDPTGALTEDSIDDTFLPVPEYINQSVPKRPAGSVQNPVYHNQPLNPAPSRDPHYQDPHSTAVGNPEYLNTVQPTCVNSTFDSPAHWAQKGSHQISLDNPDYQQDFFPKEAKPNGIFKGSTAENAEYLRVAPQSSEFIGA
One number for each entry, in µM.

Worked set:
Compound	Measured Number
C=CC(=O)Nc1cccc(C(F)(F)c2nc(Nc3ccc(N4CCN(C)CC4)cc3OC)nc3[nH]cnc23)c1 [Compound 13b]	0.34
C=CC(=O)Nc1cccc(C(F)(F)c2nc(Nc3ccc(N4CCN(C)CC4)cc3)nc3[nH]cnc23)c1 [Compound 13a]	0.17
C=CC(=O)Nc1cccc(C(F)(F)c2nc(Nc3ccc(N4CCN(C)CC4)nc3)ncc2F)c1	0.099

Q) State the recorded IC50 for this entry: C=CC(=O)Nc1cccc(C(F)(F)c2nc(Nc3ccc(N4CCN(C)CC4)cc3)ncc2C)c1
A) 0.106

----------
I'd be grateful if you could share measured IC50 for these entries.
Biological target: EGFR (WT), A431 cell (Homo sapiens)
Construct: endogenous in cells; host or cells: A431
Sequence (P00533 25-1210): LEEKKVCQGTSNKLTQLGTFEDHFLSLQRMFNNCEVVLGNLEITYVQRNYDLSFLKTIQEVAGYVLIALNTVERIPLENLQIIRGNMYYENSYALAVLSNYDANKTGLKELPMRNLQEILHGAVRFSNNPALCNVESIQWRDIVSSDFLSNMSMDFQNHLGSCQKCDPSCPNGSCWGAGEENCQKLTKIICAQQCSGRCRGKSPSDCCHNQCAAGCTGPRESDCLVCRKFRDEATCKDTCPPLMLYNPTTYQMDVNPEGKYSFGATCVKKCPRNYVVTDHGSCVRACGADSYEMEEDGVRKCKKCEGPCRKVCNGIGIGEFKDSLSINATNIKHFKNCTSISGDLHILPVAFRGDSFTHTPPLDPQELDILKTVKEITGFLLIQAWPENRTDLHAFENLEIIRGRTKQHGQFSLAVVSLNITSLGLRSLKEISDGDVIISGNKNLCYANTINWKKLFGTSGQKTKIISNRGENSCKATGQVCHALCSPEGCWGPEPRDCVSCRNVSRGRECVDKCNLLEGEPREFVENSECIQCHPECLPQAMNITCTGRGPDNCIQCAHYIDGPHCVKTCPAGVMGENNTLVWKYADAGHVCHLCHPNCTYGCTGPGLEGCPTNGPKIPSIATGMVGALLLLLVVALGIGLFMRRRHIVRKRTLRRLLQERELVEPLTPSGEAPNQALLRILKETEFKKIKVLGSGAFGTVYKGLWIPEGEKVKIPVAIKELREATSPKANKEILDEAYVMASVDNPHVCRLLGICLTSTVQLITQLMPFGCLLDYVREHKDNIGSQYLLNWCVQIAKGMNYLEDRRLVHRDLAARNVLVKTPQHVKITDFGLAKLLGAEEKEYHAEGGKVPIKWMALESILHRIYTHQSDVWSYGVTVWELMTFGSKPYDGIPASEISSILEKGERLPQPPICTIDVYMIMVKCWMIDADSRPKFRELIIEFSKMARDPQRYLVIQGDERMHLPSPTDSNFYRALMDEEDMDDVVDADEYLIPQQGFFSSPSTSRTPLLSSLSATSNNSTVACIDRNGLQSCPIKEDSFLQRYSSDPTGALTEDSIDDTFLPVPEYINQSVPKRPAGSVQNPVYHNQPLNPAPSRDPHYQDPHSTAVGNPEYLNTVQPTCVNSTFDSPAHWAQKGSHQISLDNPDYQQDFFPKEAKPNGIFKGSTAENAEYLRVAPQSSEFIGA
Experiment: ELISA assay of EGFR phosphorylation in A431 cells
Type: cell-based
Conditions: EGFR pY1068 sandwich ELISA, 2 hours compound, 30 ng/mL EGF last 15 minutes
Protocol: H1975 and A431 cells were seeded onto each well of a 96-well plate at a density of 4×10^4 cells per well. After 24 hours of growth in serum-containing media, cells were treated with test compound in serum-free medium for 2 hours. A431 cells were stimulated with 30 ng/mL EGF during the last 15 minutes of compound treatment. […] Phosphorylation of EGFR was measured using a sandwich ELISA assay with the pair of phospho-specific EGFR (pY1068) and total EGFR antibodies.

Below are some compounds; for each one, tell me its IC50.
1. C=CC(=O)Nc1cccc(C(F)(F)c2nc(Nc3ccc(N4CCN(C)CC4)cc3OC)ncc2F)c1
2. C=CC(=O)Nc1cccc(C(F)(F)c2nc(Nc3ccc(N4CCN(C)CC4)nc3)ncc2OC)c1
3. C=CC(=O)Nc1cccc(C(F)(F)c2nc(Nc3ccc(N4CCN(C)CC4)cc3OC)nc3[nH]ccc23)c1 [Compound 28d]

A)
1. > 20 µM
2. > 20 µM
3. > 20 µM
